tested on: SK-MEL-2; assay: NCI tumour cell line growth inhibition, 48 h
Activity calls are given as the source filed them. No stated cut-off is given here; in the data, active = GI50 up to about 1.1 µM and inactive = higher.
Permitted responses: active, inactive

molecule	discrete_label
CC(=O)O[C@H]1CC[C@@]2(C)C(=CC[C@@H]3[C@@H]2CC[C@]2(C)Nc4c(cnn4S(C)(=O)=O)C[C@@H]32)C1	inactive
COC(=O)C(Cc1cn(C(C)n2cc(CC(NC(C)=O)C(=O)OC)c3ccccc32)c2ccccc12)NC(C)=O (stereo not given)	inactive
Oc1ccc2ccccc2c1/N=N/c1ccsc1	inactive

Input: Recorded call for C=CCNC(NCC=C)=C(C(Cl)=C(Cl)Cl)[N+](=O)[O-] ?
Output: inactive

Input: Recorded call for CCOC(=O)CCC(NC(=O)c1ccc(Nc2nc3ccccc3nc2C(=O)OCC)s1)C(=O)OCC (stereo not given) ?
Output: inactive

Input: Recorded call for COC(=O)C1Cc2c([nH]c3ccccc23)C(c2cccc(O)c2)N1 (stereo not given) ?
Output: inactive

Where do these numbers come from? They come from ChEMBL document CHEMBL1201862.
